# ASSAYED_SYSTEM: CD276, Q5ZPR3
# Sequence (Q5ZPR3 whole entry): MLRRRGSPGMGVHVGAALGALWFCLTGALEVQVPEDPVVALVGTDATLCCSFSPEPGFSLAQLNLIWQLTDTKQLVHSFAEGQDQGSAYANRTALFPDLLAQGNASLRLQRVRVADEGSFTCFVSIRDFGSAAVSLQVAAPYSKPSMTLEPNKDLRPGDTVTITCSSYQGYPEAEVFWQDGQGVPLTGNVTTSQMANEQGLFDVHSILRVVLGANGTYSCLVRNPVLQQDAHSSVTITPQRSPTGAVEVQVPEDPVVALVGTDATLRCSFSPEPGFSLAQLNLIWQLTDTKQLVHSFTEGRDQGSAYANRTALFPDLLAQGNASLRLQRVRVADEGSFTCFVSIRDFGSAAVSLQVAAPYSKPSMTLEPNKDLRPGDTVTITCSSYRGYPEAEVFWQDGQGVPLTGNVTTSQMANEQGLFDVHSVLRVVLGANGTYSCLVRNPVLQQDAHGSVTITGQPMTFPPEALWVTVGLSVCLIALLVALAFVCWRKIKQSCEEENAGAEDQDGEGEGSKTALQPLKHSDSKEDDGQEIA
RECORDED_METRIC: binding in a display sort

design_619_5728adc2-0aea-404f-92dd-a4575c53f550_1864_dldesign_0_cycle1_af2pred (protein) MEEEKEKKEKEKLKKAKELLKKAKEMAENVAEYSVGEILRVATEAIRLATEAAKGKLKEEGKKVADEARKVAAEAARRALALQ : not found (inactive)
design_614_ef6b398b-10cb-4a07-8087-96dafb4f9c83_741_dldesign_0_cycle1_af2pred (protein) SELIERAKNLLEAAKVFLTAAQSALAAGQKATAATLAQQAIKYATEAAKLAKEAGDEKLAEEAKKVKEQAEKVLKQAQ : not found (inactive)
design_618_d4ffd631-0ea2-432e-ba0f-bd3d6297b2a0_1622_dldesign_0_cycle1_af2pred (protein) SKEEREKIYKEALKNLEKMGTLLLDLAAQGSAADVAAAKAAIEEAKKLIEEAKKANPEEAKKLAKEAHDILSKALAAVSKSVIA : not found (inactive)
